Biological target: Human DP1 receptor (Homo sapiens (Human))
Sequence (Q13258 whole entry): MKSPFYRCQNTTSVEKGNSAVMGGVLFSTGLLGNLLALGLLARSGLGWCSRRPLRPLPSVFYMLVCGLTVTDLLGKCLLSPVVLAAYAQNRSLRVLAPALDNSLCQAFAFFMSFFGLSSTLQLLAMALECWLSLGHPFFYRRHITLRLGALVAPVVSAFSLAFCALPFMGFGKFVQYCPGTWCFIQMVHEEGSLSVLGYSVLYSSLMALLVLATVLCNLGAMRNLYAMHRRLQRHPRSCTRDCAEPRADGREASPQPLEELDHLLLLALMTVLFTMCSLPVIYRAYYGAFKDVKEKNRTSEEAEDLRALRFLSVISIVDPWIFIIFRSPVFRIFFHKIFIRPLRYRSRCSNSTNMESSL
Test: Human DP1 inhibitory activity in DP1-expressing cell (PGD2-induced cAMP)
Type: cell-based
Settings: category of cAMP IC50, human DP1 receptor expressing Jurkut cell
pIC50: −log10 of the molar value.
reportedMetric: pIC50

compound: Cc1ccc2c(c1)c(CC(=O)O)nn2[C@H]1CN(S(=O)(=O)c2ccc(OCF)cc2)C[C@H]1C [Compound I-268]
studySystem: Human DP1 receptor (Homo sapiens (Human))
reportedMetric: pIC50
measuredValue: > 7.00
//
compound: CC(C)Oc1ccc(S(=O)(=O)N2C[C@@H](C)[C@@H](n3nc(CC(=O)O)c4cc(F)ccc43)C2)cc1 [Compound I-69]
studySystem: Human DP1 receptor (Homo sapiens (Human))
reportedMetric: pIC50
measuredValue: > 7.00
//
compound: CCOc1ccc(S(=O)(=O)N2C[C@@H](C)[C@@H](n3nc(CC(=O)OC(C)C)c4ccccc43)C2)cc1 [Compound I-257]
studySystem: Human DP1 receptor (Homo sapiens (Human))
reportedMetric: pIC50
measuredValue: 5.30 to 7.00
//
compound: CCOc1ccc(S(=O)(=O)N2C[C@@H](C)[C@@H](n3nc(CC(=O)O)c4ccc(F)cc43)C2)nc1 [Compound I-235]
studySystem: Human DP1 receptor (Homo sapiens (Human))
reportedMetric: pIC50
measuredValue: 5.30 to 7.00

Recorded result, CCOc1ccc(S(=O)(=O)N2C[C@H](n3nc(CC(=O)O)c4ccccc43)C[C@H]2C#N)cc1 [Compound I-320] , pIC50: > 7.00

Recorded result, C[C@@H]1CN(S(=O)(=O)c2cccc(Cl)c2)C[C@@H]1n1nc(CC(=O)O)c2ccc(F)cc21 [Compound I-122] , pIC50: 5.30 to 7.00
